Stated conditions: in toluene, 318.2 K
Assay readout: solubility (mole fraction)

Prompt: For the molecule c1ccc(P(c2ccccc2)c2ccccc2)cc1 , give its measured solubility (mole fraction) value.
Response: 0.13

----------
Stated conditions: in ethanol, 333 K
Assay readout: solubility (mole fraction)
API note: the answer field is a bare number with no unit suffix.

Prompt: For the compound c1ccc(P(c2ccccc2)c2ccccc2)cc1 , give its measured solubility (mole fraction) value.
Response: 0.05

----------
Stated conditions: in acetone, 303.2 K
Assay readout: solubility (mole fraction)
API note: the answer field is a bare number with no unit suffix.

Prompt: For the compound c1ccc(P(c2ccccc2)c2ccccc2)cc1 , give its measured solubility (mole fraction) value.
Response: 0.089

----------
Stated conditions: in isopropanol, 322.9 K
Assay readout: solubility (mole fraction)
API note: the answer field is a bare number with no unit suffix.

Prompt: For the compound c1ccc(P(c2ccccc2)c2ccccc2)cc1 , give its measured solubility (mole fraction) value.
Response: 0.025

----------
Stated conditions: in acetone, 333.1 K
Assay readout: solubility (mole fraction)

Prompt: For the molecule c1ccc(P(c2ccccc2)c2ccccc2)cc1 , give its measured solubility (mole fraction) value.
Response: 0.42

----------
Stated conditions: in isopropanol, 333.2 K
Assay readout: solubility (mole fraction)
API note: the answer field is a bare number with no unit suffix.

Prompt: For the compound c1ccc(P(c2ccccc2)c2ccccc2)cc1 , give its measured solubility (mole fraction) value.
Response: 0.045

----------
Stated conditions: in acetone, 308.1 K
Assay readout: solubility (mole fraction)

Prompt: For the molecule c1ccc(P(c2ccccc2)c2ccccc2)cc1 , give its measured solubility (mole fraction) value.
Response: 0.12

----------
Stated conditions: in toluene, 302.4 K
Assay readout: solubility (mole fraction)
API note: the answer field is a bare number with no unit suffix.

Prompt: For the molecule c1ccc(P(c2ccccc2)c2ccccc2)cc1 , give its measured solubility (mole fraction) value.
Response: 0.05

----------
Stated conditions: in benzene, 333.2 K
Assay readout: solubility (mole fraction)

Prompt: For the molecule c1ccc(P(c2ccccc2)c2ccccc2)cc1 , give its measured solubility (mole fraction) value.
Response: 0.37

----------
Stated conditions: in benzene, 318.1 K
Assay readout: solubility (mole fraction)
API note: the answer field is a bare number with no unit suffix.

Prompt: For the compound c1ccc(P(c2ccccc2)c2ccccc2)cc1 , give its measured solubility (mole fraction) value.
Response: 0.16

----------
Stated conditions: in toluene, 308.2 K
Assay readout: solubility (mole fraction)
API note: the answer field is a bare number with no unit suffix.

Prompt: For the compound c1ccc(P(c2ccccc2)c2ccccc2)cc1 , give its measured solubility (mole fraction) value.
Response: 0.07

----------
Stated conditions: in benzene, 328.1 K
Assay readout: solubility (mole fraction)
API note: the answer field is a bare number with no unit suffix.

Prompt: For the compound c1ccc(P(c2ccccc2)c2ccccc2)cc1 , give its measured solubility (mole fraction) value.
Response: 0.28

----------
Stated conditions: in toluene, 323.3 K
Assay readout: solubility (mole fraction)
API note: the answer field is a bare number with no unit suffix.

Prompt: For the compound c1ccc(P(c2ccccc2)c2ccccc2)cc1 , give its measured solubility (mole fraction) value.
Response: 0.18

----------
Stated conditions: in benzene, 312.9 K
Assay readout: solubility (mole fraction)
API note: the answer field is a bare number with no unit suffix.

Prompt: For the compound c1ccc(P(c2ccccc2)c2ccccc2)cc1 , give its measured solubility (mole fraction) value.
Response: 0.12
